Tested on: Escherichia coli TOP10
Assay: shrunken log2 fold change of peptide-encoding DNA abundance (4.5 h post-induction vs induction); higher = less antimicrobial activity (less host growth inhibition)
Details: time post-induction: 4.5 h; library: site-saturation at positions 5, 18, 19, 20
Each entry falls into one class according to its shrunken log2 fold change; the ranges are LOW: < -0.04; MEDIUM: ≥ -0.04 and < 0.08; HIGH: ≥ 0.08

Below are worked cases with known answers.
RRIRFRPPRLPRPRPRPGEGPRP = HIGH
RRIRCRPPRLPRPRPRPNWKPRP = MEDIUM
RRIRIRPPRLPRPRPRPCMMPRP = LOW

Just checking, what class would you give RRIRLRPPRLPRPRPRPSNYPRP here? LOW

How about RRIRDRPPRLPRPRPRPWNIPRP ? MEDIUM

Another sequence to check: RRIRRRPPRLPRPRPRPVYKPRP HIGH

Thanks! And RRIRCRPPRLPRPRPRPMHCPRP ? LOW

Now consider RRIRARPPRLPRPRPRPMTYPRP and answer again. LOW

====

System: Escherichia coli TOP10
Assay: shrunken log2 fold change of peptide-encoding DNA abundance (4.5 h post-induction vs induction); higher = less antimicrobial activity (less host growth inhibition)
Details: time post-induction: 4.5 h; library: site-saturation at positions 5, 18, 19, 20
RECORDED_ENDPOINT: shrunken log2 fold change
Enter the number alone.

RRIRHRPPRLPRPRPRPFTRPRP = -0.132
RRIRIRPPRLPRPRPRPTLRPRP = 0.0906
RRIRPRPPRLPRPRPRPMQYPRP = -0.0088

Give its shrunken log2 fold change value. Item: RRIRIRPPRLPRPRPRPNADPRP -0.322

What do you get for RRIRVRPPRLPRPRPRPMRLPRP ? 0.617

Try RRIRTRPPRLPRPRPRPETRPRP next. -0.0794

Also, RRIRERPPRLPRPRPRPEYIPRP please. -0.177

====

System: Escherichia coli TOP10
Assay: shrunken log2 fold change of peptide-encoding DNA abundance (4.5 h post-induction vs induction); higher = less antimicrobial activity (less host growth inhibition)
Conditions: time post-induction: 4.5 h; library: site-saturation at positions 5, 18, 19, 20
RECORDED_ENDPOINT: shrunken log2 fold change

Some entries whose results are on file:
RRIRIRPPRLPRPRPRPCRIPRP = -0.0204
RRIRARPPRLPRPRPRPNMHPRP = 0.0638
RRIRVRPPRLPRPRPRPMDGPRP = 0.145
RRIRCRPPRLPRPRPRPVVRPRP = -0.356
RRIRMRPPRLPRPRPRPKICPRP = -0.155
RRIRARPPRLPRPRPRPPVAPRP = 0.77
RRIRVRPPRLPRPRPRPRWIPRP = -0.0863
RRIRNRPPRLPRPRPRPGRFPRP = 0.327
RRIRWRPPRLPRPRPRPITYPRP = -0.828
RRIRKRPPRLPRPRPRPWFAPRP = 0.171

Could you share which shrunken log2 fold change value was measured for RRIRCRPPRLPRPRPRPPCEPRP ? -0.0942

Also RRIRERPPRLPRPRPRPGTSPRP ? 1.87

Try RRIRMRPPRLPRPRPRPYMFPRP next. -0.493

Cool, now RRIRNRPPRLPRPRPRPYQIPRP -0.0282

Also check RRIRMRPPRLPRPRPRPGPCPRP 0.915

====

System: Escherichia coli TOP10
Assay: shrunken log2 fold change of peptide-encoding DNA abundance (4.5 h post-induction vs induction); higher = less antimicrobial activity (less host growth inhibition)
Details: time post-induction: 4.5 h; library: site-saturation at positions 5, 18, 19, 20
RECORDED_ENDPOINT: shrunken log2 fold change
The reply should be a number, written without any unit.

Here's what some known entries look like.
RRIRIRPPRLPRPRPRPKGLPRP = 0.121
RRIRLRPPRLPRPRPRPISAPRP = -0.053
RRIRYRPPRLPRPRPRPDNLPRP = -0.196
RRIRCRPPRLPRPRPRPHIQPRP = -0.73
RRIRIRPPRLPRPRPRPMVNPRP = -0.294

# value lookup — system Escherichia coli TOP10, readout shrunken log2 fold change, item RRIRRRPPRLPRPRPRPHCIPRP 0.0457

What about RRIRPRPPRLPRPRPRPRVLPRP ? -0.0343

Now the same for RRIRDRPPRLPRPRPRPLPQPRP 0.282

Cool, now RRIRLRPPRLPRPRPRPPPHPRP 1.13

====

Test system: Escherichia coli TOP10
Test: shrunken log2 fold change of peptide-encoding DNA abundance (4.5 h post-induction vs induction); higher = less antimicrobial activity (less host growth inhibition)
Details: time post-induction: 4.5 h; library: site-saturation at positions 5, 18, 19, 20
RECORDED_ENDPOINT: shrunken log2 fold change
The response must contain the number and no unit.

Some entries whose results are on file:
RRIRCRPPRLPRPRPRPINTPRP = -0.329
RRIRNRPPRLPRPRPRPCIDPRP = 0.027
RRIRDRPPRLPRPRPRPLSRPRP = -0.113
RRIRHRPPRLPRPRPRPSFTPRP = -0.632
RRIRSRPPRLPRPRPRPFKIPRP = -0.466
RRIRFRPPRLPRPRPRPCPEPRP = -0.2

Would you kindly share the measured shrunken log2 fold change for RRIRHRPPRLPRPRPRPQPCPRP ? 0.0971

Would you kindly repeat that for RRIRSRPPRLPRPRPRPSWGPRP ? -0.114

Also need RRIRIRPPRLPRPRPRPRVWPRP , thanks. 0.618

And then RRIRNRPPRLPRPRPRPFWQPRP , what is it? 0.201

====

Measured shrunken log2 fold change, listed per entry for reference.
Test system: Escherichia coli TOP10
Test: shrunken log2 fold change of peptide-encoding DNA abundance (4.5 h post-induction vs induction); higher = less antimicrobial activity (less host growth inhibition)
Conditions: time post-induction: 4.5 h; library: site-saturation at positions 5, 18, 19, 20
# answer = number (no unit)

Completed entries (count: 4):
RRIRCRPPRLPRPRPRPIEAPRP = -0.108
RRIRIRPPRLPRPRPRPRLWPRP = 0.0665
RRIRPRPPRLPRPRPRPHISPRP = -0.422
RRIRVRPPRLPRPRPRPMWDPRP = -0.101

Which shrunken log2 fold change is reported for this sequence? RRIRQRPPRLPRPRPRPPIDPRP 0.00417

Also need RRIRGRPPRLPRPRPRPDGTPRP , thanks. 1.02

Would you kindly repeat that for RRIRARPPRLPRPRPRPPATPRP ? 1.63

What do we get for RRIRIRPPRLPRPRPRPLMMPRP ? -1.03

Another: RRIRERPPRLPRPRPRPWHLPRP -0.349

====

Test system: Escherichia coli TOP10
Experiment: shrunken log2 fold change of peptide-encoding DNA abundance (4.5 h post-induction vs induction); higher = less antimicrobial activity (less host growth inhibition)
Conditions: time post-induction: 4.5 h; library: site-saturation at positions 5, 18, 19, 20
Quick reference for shrunken log2 fold change among some sequences
Form: value (number only, do not type unit).

RRIRLRPPRLPRPRPRPWIGPRP = -0.177

Now for the sequence whose shrunken log2 fold change we want.
Entry RRIRFRPPRLPRPRPRPTLNPRP has what shrunken log2 fold change? -0.254

====

Test system: Escherichia coli TOP10
Assay: shrunken log2 fold change of peptide-encoding DNA abundance (4.5 h post-induction vs induction); higher = less antimicrobial activity (less host growth inhibition)
Details: time post-induction: 4.5 h; library: site-saturation at positions 5, 18, 19, 20
param class (str): category from shrunken log2 fold change; see ranges range 1 = under -0.3, range 2 = from -0.3 up to -0.03, range 3 = -0.03 and over

RRIRTRPPRLPRPRPRPQLNPRP = range 1
RRIRYRPPRLPRPRPRPEACPRP = range 2
RRIRIRPPRLPRPRPRPNTDPRP = range 1
RRIRIRPPRLPRPRPRPLDEPRP = range 2
RRIRFRPPRLPRPRPRPVACPRP = range 1

Tag the class for RRIRQRPPRLPRPRPRPIYYPRP range 1

====

Test system: Escherichia coli TOP10;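 note: peptides expressed intracellularly from a pBAD plasmid library in pooled LB shake-flask culture, induced with 0.3% L-arabinose, DNA abundance read by NGS, three biological replicates, DESeq2 with apeglm shrinkage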
Assay: shrunken log2 fold change of peptide-encoding DNA abundance (4.5 h post-induction vs induction); higher = less antimicrobial activity (less host growth inhibition)
Conditions: time post-induction: 4.5 h; library: site-saturation at positions 5, 18, 19, 20
Heads up, the class ranges for shrunken log2 fold change are low value: < -0.08; medium value: ≥ -0.08 and < 0.1; high value: ≥ 0.1

Reference set, count: 8
RRIRKRPPRLPRPRPRPWVHPRP = low value
RRIRRRPPRLPRPRPRPGVWPRP = high value
RRIRWRPPRLPRPRPRPWEYPRP = medium value
RRIRWRPPRLPRPRPRPDSPPRP = medium value
RRIRCRPPRLPRPRPRPYEQPRP = low value
RRIRTRPPRLPRPRPRPSLPPRP = medium value
RRIRWRPPRLPRPRPRPLIPPRP = low value
RRIRNRPPRLPRPRPRPHSGPRP = low value

Each sequence maps to one class by shrunken log2 fold change. Which class for RRIRHRPPRLPRPRPRPHIEPRP ? medium value

One more sequence: RRIRSRPPRLPRPRPRPLKKPRP medium value

Would you mind doing RRIRCRPPRLPRPRPRPCDCPRP as well? low value

Lookup RRIRRRPPRLPRPRPRPVKRPRP high value

Queued: RRIRARPPRLPRPRPRPDHPPRP high value

FYI, the data here is from the supplement of paper PMC9112550.
